Every entry's value here was drawn from the RNAGym collection of RNA variant scans (doi:10.1093/molbev/msab373).

B1: Azoarcus group I ribozyme (parent)
chain: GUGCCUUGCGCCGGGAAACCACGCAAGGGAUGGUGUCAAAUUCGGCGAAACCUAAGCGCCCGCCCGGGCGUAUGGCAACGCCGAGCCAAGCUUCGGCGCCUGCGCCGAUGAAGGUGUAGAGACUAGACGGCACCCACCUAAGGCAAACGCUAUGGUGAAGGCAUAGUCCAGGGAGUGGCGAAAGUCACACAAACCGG

variants of: B1; assay: reverse-splicing fitness (ratio to wild type); higher = more active; in vitro selection; Mg2+ level not given
# binning rule on reverse-splicing fitness: category 1 (below 0.007), category 2 (0.007 to below 0.01), category 3 (0.01 or more)

Solved entries:
C82U A111C A120G C150G C169U U176G; category 1
C82A A111C A120C A145U C150A C169G U176C; category 3

Just checking, what class would you give C82U A111C A120U C150G C169G U176A here?
category 1

What do you have for C82G A111U A120G A145G C150G U176C ?
category 3

What do you have for C82G A111C A120U C150G C169U U176C ?
category 1

What do you have for A145C C150G U176C ?
category 3

What do you have for A111U A120C A145C C169U U176C ?
category 3

What do you have for C82A A111C A120C A145G C150A C169A U176A ?
category 3

What do you have for A111U A120G A145G C150A C169G U176G ?
category 1

What do you have for A120U A145C C150G C169A U176A ?
category 1

What do you have for C82A A120G C150U C169A ?
category 3

What do you have for C82A A111C A120C C150U C169A U176G ?
category 2

What do you have for C82G A111U A145U C150A C169U U176C ?
category 3
